Where do these numbers come from? They come from patent US12357603B2.

molecular target: Recombinant human His-tagged Kat6a protein (amino acids 194-810) (Homo sapiens (Human)); assay: Kat6a activity assay (TR-FRET, acetylation of biotinylated Histone-H4-derived peptide); format: biochemical; details: 60 mins at 22° C., read-out: KAT6A-DPF/HAT domain IC50 [mol/l] (arithmetic mean)
pIC50: −log10 of the molar value.
A collection of compounds and their measured pIC50
measuredMetric: pIC50

compound	observedResult
COc1cc(C)ccc1S(=O)(=O)NC(=O)c1cc2ccc(N(C)C)cc2o1 [Example 127]	7.15
CCOc1ccccc1S(=O)(=O)NC(=O)c1cc2c(F)cc(N(C)C)cc2o1 [Example 13]	7.90
CN(C)c1ccc2cc(C(=O)NS(=O)(=O)c3c(F)cccc3OC3CCC3)oc2c1 [Example 142]	6.86
C[C@@H](Oc1cccc(OC2CCC2)c1S(=O)(=O)NC(=O)c1cc2ccc(N(C)C)cc2o1)C(F)(F)F (single isomer, unassigned) [Example 222]	7.51
CCS(=O)(=O)NC(=O)c1cc2ccc(N(C)C)cc2o1 [Example 61]	4.79
COc1ccc2cccnc2c1S(=O)(=O)NC(=O)c1cc2ccc(N(C)C)cc2o1 [Example 70]	6.91
CN(C)c1ccc2cc(C(=O)NS(=O)(=O)c3ccccc3-c3cccc(Cl)c3)sc2c1 [Example 49]	6.51
Cc1ccc(S(=O)(=O)NC(=O)c2cc3ccc(N(C)C)cc3o2)cc1 [Example 26]	6.39

----------
target: Recombinant human His-tagged Kat6a protein (amino acids 194-810) (Homo sapiens (Human), UniProt Q92794); assay: Kat6a activity assay (TR-FRET, acetylation of biotinylated Histone-H4-derived peptide); settings: 60 mins at 22° C., read-out: KAT6A-DPF/HAT domain IC50 [mol/l] (arithmetic mean)
Sequence (Q92794 194-810): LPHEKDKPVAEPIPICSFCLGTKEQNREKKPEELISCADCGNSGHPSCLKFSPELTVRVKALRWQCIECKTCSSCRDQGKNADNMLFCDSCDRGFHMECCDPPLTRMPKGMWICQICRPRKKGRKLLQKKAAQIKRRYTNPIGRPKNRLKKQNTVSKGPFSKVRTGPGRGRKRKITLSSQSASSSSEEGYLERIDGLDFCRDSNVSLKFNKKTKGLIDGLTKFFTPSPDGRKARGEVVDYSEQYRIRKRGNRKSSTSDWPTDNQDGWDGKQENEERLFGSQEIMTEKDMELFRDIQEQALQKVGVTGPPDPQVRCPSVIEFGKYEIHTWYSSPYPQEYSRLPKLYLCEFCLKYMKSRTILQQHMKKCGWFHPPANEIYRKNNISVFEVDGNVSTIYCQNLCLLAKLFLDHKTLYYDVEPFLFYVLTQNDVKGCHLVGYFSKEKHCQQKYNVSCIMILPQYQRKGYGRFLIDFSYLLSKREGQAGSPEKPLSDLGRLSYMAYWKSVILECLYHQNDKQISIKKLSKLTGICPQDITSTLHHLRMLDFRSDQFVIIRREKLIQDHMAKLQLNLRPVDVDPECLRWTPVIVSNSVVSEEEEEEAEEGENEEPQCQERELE
pIC50: −log10 of the molar value.
A collection of compounds and their measured pIC50
measuredMetric: pIC50

compound	observedResult
COc1cccc(C(F)(F)F)c1S(=O)(=O)NC(=O)c1cc2ccc(N(C)C)cc2o1	6.87
CCOc1nccc(C(F)(F)F)c1S(=O)(=O)NC(=O)c1cc2ccc(N(C)C)cc2o1	5.73
CN(C)c1ccc2cc(C(=O)NS(=O)(=O)c3cc(C(F)(F)F)ccc3NCC(F)F)oc2c1	5.89
CN(C)c1ccc2cc(C(=O)NS(=O)(=O)c3ccccc3C(=O)O)oc2c1	6.64
CCc1ccc(Cn2cccn2)cc1S(=O)(=O)NC(=O)c1cc2ccc(N(C)C)cc2o1	6.31
COc1cc(S(=O)(=O)NC(=O)c2cc3ccc(N(C)C)cc3o2)cc(Cn2cccn2)c1OC	5.92
CN(C)c1cc2oc(C(=O)NS(=O)(=O)c3ccccc3-c3ccccc3)cc2cc1F	5.58
CCCNc1ncc(Br)cc1S(=O)(=O)NC(=O)c1cc2ccc(N(C)C)cc2o1	6.37
CC(C)c1ccc(OC2CCC2)c(S(=O)(=O)NC(=O)c2cc3ccc(N(C)C)cc3o2)c1	7.80
CN(C)c1ccc2cc(C(=O)NS(=O)(=O)c3ccc([N+](=O)[O-])c4cccnc34)oc2c1	6.82
COc1cccc(S(C)(=O)=O)c1S(=O)(=O)NC(=O)c1cc2ccc(N(C)C)cc2o1	5.25
COCCOc1ccc(Cl)c(S(=O)(=O)NC(=O)c2cc3ccc(N(C)C)cc3o2)c1	5.35
O=C(NS(=O)(=O)c1ccccc1-c1ccccc1)c1cc2ccc(N3CCCCC3)cc2o1	5.11
CCCOc1ccccc1S(=O)(=O)NC(=O)c1cc2c(F)cc(N(C)C)cc2o1	8.05
CN(C)c1ccc2cc(C(=O)NS(=O)(=O)c3ccccc3OCCF)oc2c1	7.01
Cc1ccc(S(=O)(=O)NC(=O)c2cc3ccc(N(C)C)cc3o2)c(N)n1	5.66
Cc1ccccc1-c1ccccc1S(=O)(=O)NC(=O)c1cc2ccc(N(C)C)cc2o1	7.14
COc1ccccc1S(=O)(=O)NC(=O)c1cc2ccc(N(C)C)cc2o1	6.94
Cc1ccc2cccc(S(=O)(=O)NC(=O)c3cc4cc(F)c(N(C)C)cc4o3)c2n1	6.05
CCN(C)c1ccc2cc(C(=O)NS(=O)(=O)c3ccccc3Cl)oc2c1	5.57
CC(=O)Nc1ccc2cc(C(=O)NS(=O)(=O)c3ccccc3-c3ccccc3)oc2c1	5.29
CN(C)c1cc(C(F)(F)F)c2cc(C(=O)NS(=O)(=O)c3ccccc3-c3ccccc3)oc2c1	8.15
CN(C)c1cc(F)c2cc(C(=O)NS(=O)(=O)c3ccccc3OC3CC3)oc2c1	8.13
CCCCCOc1ccccc1S(=O)(=O)NC(=O)c1cc2ccc(N(C)C)cc2o1	6.71
CC(c1c(Cl)cccc1Cl)S(=O)(=O)NC(=O)c1cc2ccc(N(C)C)cc2o1 (racemic)	7.17
CCOc1ncccc1S(=O)(=O)NC(=O)c1cc2ccc(N(C)C)cc2o1	6.49
CCOc1ccccc1S(=O)(=O)NC(=O)c1cc2cc(C(F)(F)F)c(N(C)C)cc2o1	6.86
CC(C)c1ccccc1S(=O)(=O)NC(=O)c1cc2ccc(N(C)C)cc2o1	6.57
CCOc1ccc(C)cc1S(=O)(=O)NC(=O)c1cc2ccc(N(C)C)cc2o1	7.37
CCOc1ccc(F)cc1S(=O)(=O)NC(=O)c1cc2ccc(N(C)C)cc2o1	7.01
CN(C)c1ccc2cc(C(=O)NS(C)(=O)=O)oc2c1	4.78
CN(C)c1ccc2cc(C(=O)NS(=O)(=O)c3ccccc3)oc2c1	6.19
CCOc1c(Cl)cccc1S(=O)(=O)NC(=O)c1cc2ccc(N(C)C)cc2o1	6.60
CCOc1ccccc1S(=O)(=O)NC(=O)c1cc2cc(Br)c(N(C)C)cc2o1	5.33
